System: MT4
Assay: In vitro inhibitory activity for cytopathicities induced by HIV-1III B against MT-4 cells.
Format: functional, cell-based
Conditions: Homo sapiens
attribute-measured: pIC50
Recall that pIC50 is obtained by taking minus log10 of the concentration measured in molar.

[Q] What measured pIC50 goes with `Cc1cn([C@H]2C[C@H](OP(=O)(O)OC[C@H]3O[C@@H](n4cnc5c(=O)[nH]c(N)nc54)C[C@@H]3OP(=O)(O)OC[C@H]3O[C@@H](n4cnc5c(=O)[nH]c(N)nc54)C[C@@H]3OP(=O)(O)OC[C@H]3O[C@@H](n4cnc5c(=O)[nH]c(N)nc54)C[C@@H]3OP(=O)(O)OC[C@H]3O[C@@H](n4cnc5c(N)ncnc54)C[C@@H]3OP(=O)(O)OC[C@H]3O[C@@H](n4cnc5c(=O)[nH]c(N)nc54)C[C@@H]3O)[C@@H](COC(c3ccccc3)(c3ccccc3)c3ccccc3)O2)c(=O)[nH]c1=O` ?
[A] 6.10

====

Tested on: MT4
Experiment: In vitro inhibitory activity for cytopathicities induced by HIV-1III B against MT-4 cells.
Type: functional, cell-based
Details: Homo sapiens
pIC50: −log10 of the molar value.
Rule: t for pIC50 not less than 6, f for anything less.

Here's what some known entries look like.
mol-smiles | target-of-assay | class-assignment
Cc1cn([C@H]2C[C@H](OP(=O)(O)OC[C@H]3O[C@@H](n4cnc5c(=O)[nH]c(N)nc54)C[C@@H]3OP(=O)(O)OC[C@H]3O[C@@H](n4cnc5c(=O)[nH]c(N)nc54)C[C@@H]3OP(=O)(O)OC[C@H]3O[C@@H](n4cnc5c(=O)[nH]c(N)nc54)C[C@@H]3OP(=O)(O)OC[C@H]3O[C@@H](n4cnc5c(N)ncnc54)C[C@@H]3OP(=O)(O)OC[C@H]3O[C@@H](n4cnc5c(=O)[nH]c(N)nc54)C[C@@H]3O)[C@@H](COCc3ccc(OCc4ccccc4)c(OCc4ccccc4)c3)O2)c(=O)[nH]c1=O | MT4 | t
Cc1cn([C@H]2C[C@H](OP(=O)(O)OC[C@H]3O[C@@H](n4cnc5c(=O)[nH]c(N)nc54)C[C@@H]3OP(=O)(O)OC[C@H]3O[C@@H](n4cnc5c(=O)[nH]c(N)nc54)C[C@@H]3OP(=O)(O)OC[C@H]3O[C@@H](n4cnc5c(=O)[nH]c(N)nc54)C[C@@H]3OP(=O)(O)OC[C@H]3O[C@@H](n4cnc5c(N)ncnc54)C[C@@H]3OP(=O)(O)OC[C@H]3O[C@@H](n4cnc5c(=O)[nH]c(N)nc54)C[C@@H]3O)[C@@H](CO[Si](C)(C)C(C)(C)C)O2)c(=O)[nH]c1=O | MT4 | f
Cc1cn([C@H]2C[C@H](OP(=O)(O)OC[C@H]3O[C@@H](n4cnc5c(=O)[nH]c(N)nc54)C[C@@H]3OP(=O)(O)OC[C@H]3O[C@@H](n4cc(C)c(=O)[nH]c4=O)C[C@@H]3OP(=O)(O)OC[C@H]3O[C@@H](n4cnc5c(=O)[nH]c(N)nc54)C[C@@H]3OP(=O)(O)OC[C@H]3O[C@@H](n4cnc5c(N)ncnc54)C[C@@H]3OP(=O)(O)OC[C@H]3O[C@@H](n4cnc5c(=O)[nH]c(N)nc54)C[C@@H]3O)[C@@H](COCc3ccc(OCc4ccccc4)c(OCc4ccccc4)c3)O2)c(=O)[nH]c1=O | MT4 | f
Cc1cn([C@H]2C[C@H](OP(=O)(O)OC[C@H]3O[C@@H](n4cnc5c(=O)[nH]c(N)nc54)C[C@@H]3OP(=O)(O)OC[C@H]3O[C@@H](n4cnc5c(=O)[nH]c(N)nc54)C[C@@H]3OP(=O)(O)OC[C@H]3O[C@@H](n4cnc5c(=O)[nH]c(N)nc54)C[C@@H]3OP(=O)(O)OC[C@H]3O[C@@H](n4cnc5c(N)ncnc54)C[C@@H]3OP(=O)(O)OC[C@H]3O[C@@H](n4cnc5c(=O)[nH]c(N)nc54)C[C@@H]3O)[C@@H](COCc3ccc(OCc4ccccc4)cc3)O2)c(=O)[nH]c1=O | MT4 | f

[Q] Would you say `Cc1cn([C@H]2C[C@H](OP(=O)(O)OC[C@H]3O[C@@H](n4cnc5c(=O)[nH]c(N)nc54)C[C@@H]3OP(=O)(O)OC[C@H]3O[C@@H](n4cnc5c(=O)[nH]c(N)nc54)C[C@@H]3OP(=O)(O)OC[C@H]3O[C@@H](n4cnc5c(=O)[nH]c(N)nc54)C[C@@H]3OP(=O)(O)OC[C@H]3O[C@@H](n4cnc5c(N)ncnc54)C[C@@H]3OP(=O)(O)OC[C@H]3O[C@@H](n4cnc5c(=O)[nH]c(N)nc54)C[C@@H]3O)[C@@H](COCc3ccc(-c4ccccc4)cc3)O2)c(=O)[nH]c1=O` shows pIC50 at minimum 6?
[A] f

[Q] Evaluate `Cc1cn([C@H]2C[C@H](OP(=O)(O)OC[C@H]3O[C@@H](n4cnc5c(=O)[nH]c(N)nc54)C[C@@H]3OP(=O)(O)OC[C@H]3O[C@@H](n4cnc5c(=O)[nH]c(N)nc54)C[C@@H]3OP(=O)(O)OC[C@H]3O[C@@H](n4cnc5c(=O)[nH]c(N)nc54)C[C@@H]3OP(=O)(O)OC[C@H]3O[C@@H](n4cnc5c(N)ncnc54)C[C@@H]3OP(=O)(O)OC[C@H]3O[C@@H](n4cnc5c(=O)[nH]c(N)nc54)C[C@@H]3O[Si](c3ccccc3)(c3ccccc3)C(C)(C)C)[C@@H](CO)O2)c(=O)[nH]c1=O` : pIC50 at minimum 6?
[A] f

====

Tested on: MT4
Test: In vitro inhibitory activity for cytopathicities induced by HIV-1III B against MT-4 cells.
Type: functional, cell-based
Settings: Homo sapiens
Below: a set of entries, each annotated with reported IC50.
Kindly provide the numeric value in nM only, without the unit symbol.

mol-smiles | target-of-assay | IC50 [nM]
COc1ccc(C(OC[C@H]2O[C@@H](n3cc(C)c(=O)[nH]c3=O)C[C@@H]2OP(=O)(O)OC[C@H]2O[C@@H](n3cnc4c(=O)[nH]c(N)nc43)C[C@@H]2OP(=O)(O)OC[C@H]2O[C@@H](n3cnc4c(=O)[nH]c(N)nc43)C[C@@H]2OP(=O)(O)OC[C@H]2O[C@@H](n3cnc4c(=O)[nH]c(N)nc43)C[C@@H]2OP(=O)(O)OC[C@H]2O[C@@H](n3cnc4c(N)ncnc43)C[C@@H]2OP(=O)(O)OC[C@H]2O[C@@H](n3cnc4c(=O)[nH]c(N)nc43)C[C@@H]2O)(c2ccccc2)c2ccc(OC)cc2)cc1 | MT4 | 1000

# input for lookup
[Q] Using the record for `Cc1cn([C@H]2C[C@H](OP(=O)(O)OC[C@H]3O[C@@H](n4cnc5c(O)nc(N)nc54)C[C@@H]3OP(=O)(O)OC[C@H]3O[C@@H](n4cnc5c(O)nc(N)nc54)C[C@@H]3OP(=O)(O)OC[C@H]3O[C@@H](n4cnc5c(O)nc(N)nc54)C[C@@H]3OP(=O)(O)OC[C@H]3O[C@@H](n4cnc5c(N)ncnc54)C[C@@H]3O)[C@@H](COCc3ccc(OCc4ccccc4)c(OCc4ccccc4)c3)O2)c(=O)[nH]c1=O` , report its IC50.
[A] 1900

====

Tested on: MT4
Assay: In vitro inhibitory activity for cytopathicities induced by HIV-1III B against MT-4 cells.
Format: functional, cell-based
Conditions: Homo sapiens
Each entry below carries its recorded IC50.
Give just the number in µM; leave the unit off.

mol-smiles | unit-annotation | IC50
Cc1cn([C@H]2C[C@H](OP(=O)(O)OC[C@H]3O[C@@H](n4cc(C)c(=O)[nH]c4=O)C[C@@H]3OP(=O)(O)OC[C@H]3O[C@@H](n4cnc5c(=O)[nH]c(N)nc54)C[C@@H]3OP(=O)(O)OC[C@H]3O[C@@H](n4cnc5c(=O)[nH]c(N)nc54)C[C@@H]3OP(=O)(O)OC[C@H]3O[C@@H](n4cnc5c(=O)[nH]c(N)nc54)C[C@@H]3OP(=O)(O)OC[C@H]3O[C@@H](n4cnc5c(=O)[nH]c(N)nc54)C[C@@H]3O)[C@@H](COCc3ccc(OCc4ccccc4)c(OCc4ccccc4)c3)O2)c(=O)[nH]c1=O | µM | 0.56
Cc1cn([C@H]2C[C@H](OP(=O)(O)OC[C@H]3O[C@@H](n4cnc5c(=O)[nH]c(N)nc54)C[C@@H]3OP(=O)(O)OC[C@H]3O[C@@H](n4cnc5c(=O)[nH]c(N)nc54)C[C@@H]3OP(=O)(O)OC[C@H]3O[C@@H](n4cnc5c(=O)[nH]c(N)nc54)C[C@@H]3OP(=O)(O)OC[C@H]3O[C@@H](n4cnc5c(N)ncnc54)C[C@@H]3OP(=O)(O)OC[C@H]3O[C@@H](n4cnc5c(=O)[nH]c(N)nc54)C[C@@H]3O)[C@@H](COCc3ccc4ccccc4c3)O2)c(=O)[nH]c1=O | µM | 2

Kindly review the next compound as well.
[Q] # query: IC50 of entry `Cc1cn([C@H]2C[C@H](OP(=O)(O)OC[C@H]3O[C@@H](n4cnc5c(=O)[nH]c(N)nc54)C[C@@H]3OP(=O)(O)OC[C@H]3O[C@@H](n4cnc5c(=O)[nH]c(N)nc54)C[C@@H]3OP(=O)(O)OC[C@H]3O[C@@H](n4cnc5c(=O)[nH]c(N)nc54)C[C@@H]3OP(=O)(O)OC[C@H]3O[C@@H](n4cnc5c(N)ncnc54)C[C@@H]3OP(=O)(O)OC[C@H]3O[C@@H](n4cnc5c(=O)[nH]c(N)nc54)C[C@@H]3O)[C@@H](COC(c3ccccc3)c3ccccc3)O2)c(=O)[nH]c1=O`
[A] 4.3
